Data credit: patent US20210045385A1

# Test system: galium (catchweed bedstraw, Galium aparine)
# assay method text: Test C postemergence, visual plant response rating
# Assay type: in vivo
# condition label: Test C, postemergence, 125 g ai/ha
property: Galium plant response rating (0 to 100 scale)
Numbers only.

Solved cases (2 shown):
INSERT INTO assay_data (compound, test_result) VALUES
  ('C#CCO/N=C(/c1cc(C)cc(Cl)c1)c1c(O)c(C)nn(C)c1=O [Compound 154]', 100),
  ('CO/N=C(/c1c(O)c(C)nn(C)c1=O)c1cc(SC)cc2ccccc12 [Compound 298]', 30);

For every item in the list below, what is its measured Galium plant response rating (0 to 100 scale)?
1. CON=C(c1ccc(F)c(Br)c1)c1c(O)c(C)nn(C)c1=O [Compound 176]
2. C#CCON=C(c1cccc(OC(F)F)c1)c1c(O)c(C)nn(C)c1=O [Compound 201]
3. CON=C(c1cc(Cl)cc(Cl)c1F)c1c(O)c(C)nn(C)c1=O [Compound 299]
4. CC(C)O/N=C(/c1c(O)c(Cl)nn(C)c1=O)c1ccc(F)c2ccccc12 [Compound 209]

Return:
[90, 80, 100, 100]

----------
Exercise: for every item that follows, state its recorded Wheat plant response rating.
# System: wheat (Triticum aestivum)
# assay method text: Test A postemergence, visual plant response rating
# Format: in vivo
# condition label: Postemergence, 125 g ai/ha; 0 to 100 scale (0 no effect, 100 complete control)
Give bare numbers.

Solved cases (3 shown):
INSERT INTO results (molecule, test_result) VALUES
  ('CO/N=C(\c1ccc(F)cc1C)c1c(O)c(C)nn(C)c1=O', 0),
  ('CO/N=C(/c1ccccc1C(C)C)c1c(O)c(C)nn(C)c1=O', 0),
  ('C#CCO/N=C(\c1c(O)c(C)nn(C)c1=O)c1cccc2ccccc12', 40);

For every item in the list below, what is its measured Wheat plant response rating?
1. CON=C(c1cccc(C2CC2)c1)c1c(O)c(C)nn(C)c1=O
2. C=CCON=C(c1c(O)c(C)nn(C)c1=O)c1cc(Br)cc2ccccc12 [Compound 114]
3. CON=C(c1c(O)c(C)nn(C)c1=O)c1ccc(Cl)c2ccccc12
4. C#CCON=C(c1c(O)c(C)nn(C)c1=O)c1cc(Br)cc2ccccc12

Return:
0
0
10
50

----------
# System: ragweed (common ragweed, Ambrosia artemisiifolia)
# assay method text: Test C preemergence, visual plant response rating
# Format: in vivo
# condition label: Test C, 31 g ai/ha, 0 is no effect, 100 is complete control
Please respond with Met when measured Ragweed plant response rating (0 to 100 scale) is strictly beneath 60, and with Not met in all other cases.

INSERT INTO measurements (smiles_data, qualitative_label) VALUES
  ('CO/N=C(\c1ccc(Cl)c(Cl)c1)c1c(O)c(C)nn(C)c1=O', 'Met'),
  ('CON=C(c1ccc(F)c(Br)c1)c1c(O)c(C)nn(C)c1=O', 'Met'),
  ('CO/N=C(/c1cc(Cl)cc(Br)c1)c1c(O)c(C)nn(C)c1=O', 'Not met'),
  ('C#CCO/N=C(/c1cccc(Br)c1)c1c(O)c(C)nn(C)c1=O', 'Met'),
  ('CON=C(c1cc(Cl)cc(Cl)c1F)c1c(O)c(C)nn(C)c1=O', 'Not met'),
  ('C#CCO/N=C(\c1ccc(F)c(Br)c1)c1c(O)c(C)nn(C)c1=O', 'Met');

Enquiry: Lab note: confirm whether the reported Ragweed plant response rating (0 to 100 scale) for this compound is below 60, equality not counting. compound: CON=C(c1cc(Cl)cc(OC)c1)c1c(O)c(C)nn(C)c1=O
Return: Met
